# Experimental details: recombinant barcode read abundance after kanamycin selection (control-corrected) (log10(CPM+1)); higher = more efficient recombination; sequences stand for … in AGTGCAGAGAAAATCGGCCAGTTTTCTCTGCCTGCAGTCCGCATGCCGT…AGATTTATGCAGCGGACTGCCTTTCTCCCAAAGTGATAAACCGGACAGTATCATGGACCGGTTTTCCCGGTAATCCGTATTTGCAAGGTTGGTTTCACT; site = the 11-nt target;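 note: IS621 recombinase and bridge RNA in Escherichia coli cells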
Measured attribute: recombinant barcode read abundance (log10)
Field format: numeric only.

Look up and report measured recombinant barcode read abundance (log10) for this entry: GACGTAACTTGGGTTCTAACCTGTTGCCT (site GATGTAACTAG)
0.163

Look up and report measured recombinant barcode read abundance (log10) for this entry: AGGTCCTCTTGGGTTCTAACCTGTTGCCT (site AGGTCCTCTAA)
1.05

Look up and report measured recombinant barcode read abundance (log10) for this entry: CTTCATCCTTGGGTTCTAACCTGTTGCCT (site CTTCACCCTAG)
0.34

Look up and report measured recombinant barcode read abundance (log10) for this entry: ATGCGAGCTTGGGTTCTAACCTGTTGCCG (site ATGCGAGCTCT)
0.404

Look up and report measured recombinant barcode read abundance (log10) for this entry: CTCGGTTCTTGGGTTCTAACCTGTTGCCT (site CTCGGTACTTG)
0.128

Look up and report measured recombinant barcode read abundance (log10) for this entry: CTCGACCCTTGGGTTCTAACCTGTTGCAT (site GGGCCTGCTTG)
1.66

Look up and report measured recombinant barcode read abundance (log10) for this entry: CAGTGAACTTGGGTTCTAACCTGTTGCCT (site CGGTGAACTAG)
0.0595

Look up and report measured recombinant barcode read abundance (log10) for this entry: GTGCCCGCTTGGGTTCTAACCTGTTGCGG (site GTGCCCGCTCC)
1.11

Look up and report measured recombinant barcode read abundance (log10) for this entry: GATTCTCCTTGGGTTCTAACCTGTTGCTT (site GATTCTCCTAA)
0.0943

Look up and report measured recombinant barcode read abundance (log10) for this entry: CTGTTCCCTTGGGTTCTAACCTGTTGCGG (site CTGATCCCTCC)
0.291

Look up and report measured recombinant barcode read abundance (log10) for this entry: AGGAACTCTTGGGTTCTAACCTGTTGCTT (site AGGAGCTCTTA)
0.0561

Look up and report measured recombinant barcode read abundance (log10) for this entry: TACAAGCCTTGGGTTCTAACCTGTTGCGG (site TACAAGCCTCC)
1.91

Look up and report measured recombinant barcode read abundance (log10) for this entry: CTGTCTCCTTGGGTTCTAACCTGTTGCCT (site TTGTCTCCTAG)
0.3

Look up and report measured recombinant barcode read abundance (log10) for this entry: GAGGGCCCTTGGGTTCTAACCTGTTGCCG (site GAGGGCCCTCA)
0.29

Look up and report measured recombinant barcode read abundance (log10) for this entry: AGACCACCTTGGGTTCTAACCTGTTGCCT (site AGACCACCTAG)
1.82

Look up and report measured recombinant barcode read abundance (log10) for this entry: CATGGGCCTTGGGTTCTAACCTGTTGCCT (site CGTGGGCCTAG)
0.151

* * *

# Experimental details: recombinant barcode read abundance after kanamycin selection (control-corrected) (log10(CPM+1)); higher = more efficient recombination; sequences stand for … in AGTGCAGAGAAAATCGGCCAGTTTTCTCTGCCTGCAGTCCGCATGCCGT…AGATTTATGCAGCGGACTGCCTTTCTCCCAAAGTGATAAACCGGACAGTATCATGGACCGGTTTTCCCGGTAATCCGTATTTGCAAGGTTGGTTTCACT; site = the 11-nt target
The label depends only on recombinant barcode read abundance (log10): condition met if it is at least 0.2, condition not met if it is smaller.

Hi team, for GCGGATCCTTGGGTTCTAACCTGTTGCTA (site GCGGATCCTTA) , is the recorded recombinant barcode read abundance (log10) at or above 0.2?
condition met

Hi team, for AGGATTCCTTGGGTTCTAACCTGTTGCCT (site AAGATTCCTAG) , is the recorded recombinant barcode read abundance (log10) at or above 0.2?
condition not met

Hi team, for TTAGTCGCTTGGGTTCTAACCTGTTGCCT (site TTAGTAGCTAG) , is the recorded recombinant barcode read abundance (log10) at or above 0.2?
condition not met

Hi team, for CCGCAGACTTGGGTTCTAACCTGTTGCCA (site CCGCAGACTTG) , is the recorded recombinant barcode read abundance (log10) at or above 0.2?
condition not met

Hi team, for CGGAATCCTTGGGTTCTAACCTGTTGCTT (site CGGAATCCTAT) , is the recorded recombinant barcode read abundance (log10) at or above 0.2?
condition met

Hi team, for CTACGCTCTTGGGTTCTAACCTGTTGCGA (site CTACGCTCTTC) , is the recorded recombinant barcode read abundance (log10) at or above 0.2?
condition met

Hi team, for GGCAAACCTTGGGTTCTAACCTGTTGCGG (site CATGGGACTAT) , is the recorded recombinant barcode read abundance (log10) at or above 0.2?
condition not met

Hi team, for CTATGGACTTGGGTTCTAACCTGTTGCAT (site CTATGGACTGT) , is the recorded recombinant barcode read abundance (log10) at or above 0.2?
condition met

Hi team, for TCACCTGCTTGGGTTCTAACCTGTTGCCT (site TCACCTGCTAG) , is the recorded recombinant barcode read abundance (log10) at or above 0.2?
condition met

Hi team, for CTCACACCTTGGGTTCTAACCTGTTGCAG (site CTCACACCTCT) , is the recorded recombinant barcode read abundance (log10) at or above 0.2?
condition met

Hi team, for GAGGGTACTTGGGTTCTAACCTGTTGCAT (site GAGGGTACTAT) , is the recorded recombinant barcode read abundance (log10) at or above 0.2?
condition met

Hi team, for GAGCCGACTTGGGTTCTAACCTGTTGCAG (site GAGCCGACTCT) , is the recorded recombinant barcode read abundance (log10) at or above 0.2?
condition met

Hi team, for TAGTATACTTGGGTTCTAACCTGTTGCTG (site TCGTATACTCC) , is the recorded recombinant barcode read abundance (log10) at or above 0.2?
condition not met

Hi team, for CTAAGGTCTTGGGTTCTAACCTGTTGCTA (site TCTTTAGCTCT) , is the recorded recombinant barcode read abundance (log10) at or above 0.2?
condition not met

Hi team, for TCACGTCCTTGGGTTCTAACCTGTTGCGG (site TTACGTCCTCC) , is the recorded recombinant barcode read abundance (log10) at or above 0.2?
condition not met
